Observed IC50, system Acetylcholinesterase (Homo sapiens, UniProt P22303).

C[C@H]1C(=O)N(C(=O)NCc2ccccc2)[C@@H]1Oc1ccc(C(=O)C(C)(C)C)cc1	> 100 µM

As a next step, examine the molecule that follows.
# value lookup — system Acetylcholinesterase (Homo sapiens, UniProt P22303), readout IC50, item C[C@H]1C(=O)N(C(=O)NCc2ccccc2)[C@@H]1Oc1ccc(C(=O)O)cc1
> 100 µM

----------
- Test system: Human betaherpesvirus 5
- experiment: Binding affinity towards mutant alpha-Ala HCMV protease was determined
- Format: functional
Note to self: use 1 only for Ki readings below 20 µM; a reading exactly at 20 µM still gets -1.

Field: example entries. Status: answers known.
CCCCNC(=O)N1C(=O)C[C@H]1OC(C)=O	-1
C[C@H]1C(=O)N(C(=O)NCc2ccccc2)[C@@H]1Oc1ccc(C(=O)C(C)(C)C)cc1	1
C[C@H]1C(=O)N(C(=O)NCc2ccccc2)[C@@H]1Oc1ccc(C(=O)O)cc1	1

Problem: For the compound CC[C@H]1C(=O)N(C(=O)NCc2ccccc2)[C@@H]1Oc1ccc(C(=O)O)cc1 , is Ki under 20 µM?
1
